- measurementProtocol: Inhibition of HCV NS3 protease by continuous spectrophotometric assay
- Parameters: species or system Hepacivirus hominis
measurementKind: pKi
pKi is defined as minus the log10 of a concentration measured in mol/L.

Previously resolved entries follow.
- compound: "C[C@@H](NC(=O)N(CC1CC1)NC(=O)[C@@H]1[C@@H]2[C@H](CN1C(=O)[C@@H](NC(=O)N[C@H](CN1C(=O)C3CCC(C3)C1=O)C(C)(C)C)C(C)(C)C)C2(C)C)c1ccccc1"
  measurementKind: "pKi"
  numericReadout: 6.60
- compound: "CCCN(NC(=O)[C@@H]1[C@@H]2[C@H](CN1C(=O)[C@@H](NC(=O)N[C@H](CN1C(=O)CC(C)(C)CC1=O)C(C)(C)C)C(C)(C)C)C2(C)C)C(=O)N[C@H](C)c1ccccc1"
  measurementKind: "pKi"
  numericReadout: 7.19
- compound: "CCCN(NC(=O)[C@@H]1[C@@H]2[C@H](CN1C(=O)[C@@H](NC(=O)N[C@H](CN1C(=O)C3CCC(C3)C1=O)C(C)(C)C)C(C)(C)C)C2(C)C)C(=O)CCc1ccccc1"
  measurementKind: "pKi"
  numericReadout: 6.14

stdin: Look up pKi for this compound: "CCCN(NC(=O)[C@@H]1[C@@H]2[C@H](CN1C(=O)[C@@H](NC(=O)N[C@H](CN1C(=O)C3CCC(C3)C1=O)C(C)(C)C)C(C)(C)C)C2(C)C)C(=O)NC(C)(C)C"
stdout: 5.80

stdin: Need pKi, item CC(C)(C)NC(=O)N[C@H](C(=O)N1C[C@H]2[C@@H]([C@H]1C(=O)NC(CC1CCC1)C(=O)C(N)=O)C2(C)C)C(C)(C)C (some centres not stated)
stdout: 7.85

stdin: Quick one: pKi for "CCCN(NC(=O)[C@@H]1[C@@H]2[C@H](CN1C(=O)[C@@H](NC(=O)N[C@H](CN1C(=O)C3CCC(C3)C1=O)C(C)(C)C)C(C)(C)C)C2(C)C)C(=O)C1CC1" ?
stdout: 5.52

stdin: Fill in: pKi of "CCCN(NC(=O)[C@@H]1[C@@H]2[C@H](CN1C(=O)[C@@H](NC(=O)N[C@H](CN1C(=O)C3CCC(C3)C1=O)C(C)(C)C)C(C)(C)C)C2(C)C)C(C)=O" is ___
stdout: 4.66

----------
- measurementProtocol: Inhibition of HCV NS3 protease by continuous spectrophotometric assay
- Parameters: species or system Hepacivirus hominis
Starred links: 1 amine or outer side, 2 acyl side, 3 side chain; linkers in the order of their positions; H or OH if unused. Non-standard residues stand in square brackets, D forms with d. Residues, ends and D or L forms follow the SMILES beside them. *: point of attachment. Pro(4R-OPh) = O=C(O)[C@@H]1C[C@@H](Oc2ccccc2)CN1; NH(1R-phenylethyl) = C[C@@H](N*)c1ccccc1; azaNva = CCCN(N[*:1])C(=O)[*:2]; Aad = N[C@@H](CCCC(=O)O)C(=O)O; Tle = CC(C)(C)[C@H](N)C(=O)O
Measured pKi values are reported for all entries that follow.
Recall that pKi is obtained by taking minus log10 of the concentration measured in molar.

- molecule: "C[C@@H](NC(=O)N(CC1CC1)NC(=O)[C@@H]1[C@@H]2[C@H](CN1C(=O)[C@@H](NC(=O)N[C@H](CN1C(=O)CC(C)(C)CC1=O)C(C)(C)C)C(C)(C)C)C2(C)C)c1ccccc1"
  pKi: 6.70
- molecule: "CCCN(NC(=O)[C@@H]1[C@@H]2[C@H](CN1C(=O)[C@@H](NC(=O)N[C@H](CN1C(=O)C3CCC(C3)C1=O)C(C)(C)C)C(C)(C)C)C2(C)C)C(=O)c1ccccc1"
  pKi: 4.28
- molecule: "CCCN(NC(=O)[C@@H]1[C@@H]2[C@H](CN1C(=O)[C@@H](NC(=O)N[C@H](CN1C(=O)C3CCC(C3)C1=O)C(C)(C)C)C(C)(C)C)C2(C)C)C(=O)N[C@H](C)c1ccccc1"
  pKi: 7.49
- molecule: "CCCN(NC(=O)[C@@H]1C[C@@H](Oc2ccccc2)CN1C(=O)[C@@H](NC(=O)[C@@H](NC(=O)[C@H](CCCC(=O)O)NC(=O)[C@H](CCCC(=O)O)NC(C)=O)C(C)C)C(C)(C)C)C(=O)N[C@H](C)c1ccccc1 (Ac-[Aad][Aad]V[Tle][Pro(4R-OPh)][azaNva]-{NH(1R-phenylethyl)})"
  pKi: 7.11

stdin: Field request: pKi | item: "CCCN(NC(=O)[C@@H]1[C@@H]2[C@H](CN1C(=O)[C@@H](NC(=O)N[C@H](CN1C(=O)C3CCC(C3)C1=O)C(C)(C)C)C(C)(C)C)C2(C)C)C(=O)OC(C)(C)C"
stdout: 5.51

stdin: What value of measured pKi is listed for "CCCN(NC(=O)[C@@H]1[C@@H]2[C@H](CN1C(=O)[C@@H](NC(=O)N[C@H](CN(C)S(C)(=O)=O)C(C)(C)C)C(C)(C)C)C2(C)C)C(=O)N[C@H](C)c1ccccc1" ?
stdout: 6.96

stdin: Using the record for "CCCN(NC(=O)[C@@H]1[C@@H]2[C@H](CN1C(=O)[C@@H](NC(=O)N[C@H](CN1C(=O)C3CCC(C3)C1=O)C(C)(C)C)C(C)(C)C)C2(C)C)C(=O)NC1CCCCC1" , report its pKi.
stdout: 5.89

----------
- measurementProtocol: Inhibition of HCV NS3 protease by continuous spectrophotometric assay
- Parameters: species or system Hepacivirus hominis
measurementKind: Ki (nM)
A number alone suffices; assume nM.

- recordSmiles: "CCCN(NC(=O)[C@@H]1[C@@H]2[C@H](CN1C(=O)[C@@H](NC(=O)N[C@H](CN1C(=O)C3CCC(C3)C1=O)C(C)(C)C)C(C)(C)C)C2(C)C)C(=O)Nc1ccccc1"
  measurementKind: "Ki"
  unitAbbreviation: "nM"
  numericReadout: 950
- recordSmiles: "CCCN(NC(=O)[C@@H]1[C@@H]2[C@H](CN1C(=O)[C@@H](NC(=O)N[C@H](CN1C(=O)C3CCC(C3)C1=O)C(C)(C)C)C(C)(C)C)C2(C)C)C(=O)NC1CC1"
  measurementKind: "Ki"
  unitAbbreviation: "nM"
  numericReadout: 750

// next entry
stdin: Which Ki value belongs to "CCCN(NC(=O)[C@@H]1[C@@H]2[C@H](CN1C(=O)[C@@H](NC(=O)N[C@H](CN(C)S(=O)(=O)c1cccnc1)C(C)(C)C)C1CCCCC1)C2(C)C)C(=O)N[C@H](C)c1ccccc1" ?
stdout: 230
